clearance values by entry
Assay: Pharmacokinetics in mice in vivo
Settings: female, mouse, plasma; Balb/c mice, intravenous injection (3 npk); read-out: Clearance rate
measured.parameter: clearance (mL/min/kg)

>>> df
                                   molecule  reported_result
0  C=CC(=O)N1CC[C@H](n2nc(C#Cc3cc(OC)cc(OC)c3)c3c(N)ncnc32)C1 [Reference Example 1, reference compound]               22
1  COc1cc(C)cc2cc(-c3cc(C4CCN(C(=O)CC#N)C4)n4ncnc(N)c34)sc12 (single isomer, unassigned)               52

* * *

bioavailability values by entry
Test: Pharmacokinetics in mice in vivo
Details: female, mouse, plasma; Balb/c mice, oral administration (10 npk); read-out: Bioavailability F
measured.parameter: bioavailability (%)

                                   compound  measured_parameter  result_unit  reported_result
0  C=CC(=O)N1CC[C@H](n2nc(C#Cc3cc(OC)cc(OC)c3)c3c(N)ncnc32)C1 [Reference Example 1, reference compound]     bioavailability            %               69
1  COc1cc(C)cc2cc(-c3cc(C4CCN(C(=O)CC#N)C4)n4ncnc(N)c34)sc12 (single isomer, unassigned)     bioavailability            %               70

* * *

Target: human FGFR1 (Homo sapiens)
Sequence (P11362 22-822): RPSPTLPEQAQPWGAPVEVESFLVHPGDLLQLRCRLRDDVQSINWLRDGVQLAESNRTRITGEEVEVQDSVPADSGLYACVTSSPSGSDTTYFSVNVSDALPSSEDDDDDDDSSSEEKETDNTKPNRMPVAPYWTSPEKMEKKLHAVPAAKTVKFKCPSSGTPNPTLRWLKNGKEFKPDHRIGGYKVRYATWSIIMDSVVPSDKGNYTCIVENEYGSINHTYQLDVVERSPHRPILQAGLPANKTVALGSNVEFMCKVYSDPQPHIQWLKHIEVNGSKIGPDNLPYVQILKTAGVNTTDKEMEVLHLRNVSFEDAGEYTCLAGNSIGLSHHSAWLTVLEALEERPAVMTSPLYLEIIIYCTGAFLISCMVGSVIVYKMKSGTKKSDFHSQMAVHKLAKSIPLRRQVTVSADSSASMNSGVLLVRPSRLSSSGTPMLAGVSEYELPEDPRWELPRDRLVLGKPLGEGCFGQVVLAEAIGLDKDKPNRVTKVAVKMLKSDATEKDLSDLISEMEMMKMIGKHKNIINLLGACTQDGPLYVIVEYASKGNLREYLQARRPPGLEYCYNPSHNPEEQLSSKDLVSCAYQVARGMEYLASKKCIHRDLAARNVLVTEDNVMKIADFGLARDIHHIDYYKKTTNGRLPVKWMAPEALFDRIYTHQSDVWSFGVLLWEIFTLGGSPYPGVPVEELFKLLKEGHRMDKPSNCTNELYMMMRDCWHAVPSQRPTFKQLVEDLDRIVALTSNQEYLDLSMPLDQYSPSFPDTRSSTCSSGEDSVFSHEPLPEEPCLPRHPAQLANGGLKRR
Test: 33P isotope-labeled kinase activity test, wild-type FGFR1
Conditions: IC50 FGFR1, wild-type kinase, 33P-ATP 5 μM, 120 minutes
IC50 values by entry
measured.parameter: IC50 (nM)

In [3]: df
Out[3]:
                                    molecule  result_unit  censoring_qualifier  reported_result
 0  COc1cc(C)cc2cc(-c3cc(C4CCN(C(=O)/C=C/CN(C)C)C4)n4ncnc(N)c34)sc12 (single isomer, unassigned) [Example 12]           nM                    =              0.2
 1  C=CC(=O)N1CC[C@@H](c2cc(-c3nc4cc(OC)cc(OC)c4s3)c3c(N)ncnn23)C1           nM                    =              126
 2  C=CC(=O)N1CCC(c2cc(-c3cc4cc(C)cc(OC)c4s3)c3c(N)ncnn23)C1 (centres unmarked)           nM                    =              0.4
 3  CCC(=O)N1CC[C@H](c2cc(-c3nc4cc(OC)cc(OC)c4s3)c3c(N)ncnn23)C1           nM                    >            10000
 4  C=CC(=O)N1CC[C@H](c2cc(-c3cc4cc(Cl)cc(OC)c4s3)c3c(N)ncnn23)C1           nM                    =              0.3
 5  CC#CC(=O)N1CCC(c2c(COC)c(-c3cc4cc(C)cc(OC)c4s3)c3c(N)ncnn23)C1 (centres unmarked)           nM                    =              0.2
 6  COc1cc(C)cc2cc(-c3cc(C4CCN(C(=O)CC#N)C4)n4ncnc(N)c34)sc12 (single isomer, unassigned) [Example 15]           nM                    =              1.5
 7  CCC(=O)N1CC[C@@H](c2cc(-c3cc4cc(C)cc(OC)c4s3)c3c(N)ncnn23)C1           nM                    =              1.2
 8  C=CC(=O)N1CCCC(c2cc(-c3cc4cc(C)cc(OC)c4s3)c3c(N)ncnn23)C1 (centres unmarked)           nM                    =              1.7
 9  CCC(=O)N1CC[C@H](c2cc(-c3cc4c(F)c(OC)cc(OC)c4s3)c3c(N)ncnn23)C1           nM                    =              6.6
10  CCC(=O)N1CC[C@@H](c2cc(-c3cc4c(F)c(OC)cc(OC)c4s3)c3c(N)ncnn23)C1           nM                    =              2.2
11  C=CC(=O)N1CCC(c2cc(-c3sc4c(OC)cc(C)cc4c3C)c3c(N)ncnn23)C1 (single isomer, unassigned) [Example 7]           nM                    =              0.7
12  C=CC(=O)N1CCC(c2c(COC)c(-c3cc4cc(C)cc(OC)c4s3)c3c(N)ncnn23)C1 (single isomer, unassigned)           nM                    =              0.1
13  C=CC(=O)N1CC[C@H](c2cc(-c3sc4c(OC)cc(Cl)cc4c3C)c3c(N)ncnn23)C1           nM                    =              0.7
14  COc1cc(C)cc2cc(-c3cc(C4CCN(C(=O)/C=C/CN(C)C)C4)n4ncnc(N)c34)sc12 (single isomer, unassigned) [Example 13]           nM                    =              0.6
15  CC#CC(=O)N1CC[C@H](c2cc(-c3cc4cc(C)cc(OC)c4s3)c3c(N)ncnn23)C1           nM                    =              0.1
16  COc1cc(OC)c2sc(-c3cc([C@@H]4CCN(C(=O)/C=C/CN(C)C)C4)n4ncnc(N)c34)cc2c1F           nM                    =              0.5

* * *

pIC50 values by entry
Target: human FGFR4 (Homo sapiens, UniProt P22455)
Sequence (P22455 22-802): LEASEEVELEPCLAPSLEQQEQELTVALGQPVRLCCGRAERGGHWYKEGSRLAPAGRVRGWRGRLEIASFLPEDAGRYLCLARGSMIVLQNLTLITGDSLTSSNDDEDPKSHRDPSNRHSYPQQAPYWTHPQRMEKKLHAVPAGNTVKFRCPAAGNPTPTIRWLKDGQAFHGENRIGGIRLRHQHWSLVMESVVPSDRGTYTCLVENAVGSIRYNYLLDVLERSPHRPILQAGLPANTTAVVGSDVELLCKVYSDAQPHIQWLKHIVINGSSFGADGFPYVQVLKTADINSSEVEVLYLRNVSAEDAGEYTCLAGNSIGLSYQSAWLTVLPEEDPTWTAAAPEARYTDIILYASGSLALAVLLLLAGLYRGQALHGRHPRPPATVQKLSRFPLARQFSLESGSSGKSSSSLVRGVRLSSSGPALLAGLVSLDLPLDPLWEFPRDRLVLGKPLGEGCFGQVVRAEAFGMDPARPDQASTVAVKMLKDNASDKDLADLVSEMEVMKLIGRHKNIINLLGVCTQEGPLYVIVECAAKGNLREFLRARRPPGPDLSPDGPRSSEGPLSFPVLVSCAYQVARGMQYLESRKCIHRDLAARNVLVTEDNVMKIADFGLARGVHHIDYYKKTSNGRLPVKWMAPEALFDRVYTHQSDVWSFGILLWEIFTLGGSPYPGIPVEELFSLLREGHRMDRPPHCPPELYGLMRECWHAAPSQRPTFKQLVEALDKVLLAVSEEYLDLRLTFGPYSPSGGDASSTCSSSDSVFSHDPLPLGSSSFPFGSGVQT
pIC50: −log10 of the molar value.
measured.parameter: pIC50

>>> df
                                   molecule                               target_desc  censoring_qualifier  reported_result
0  C=CC(=O)N1CC[C@H](c2cc(-c3nc4cc(OC)cc(OC)c4s3)c3c(N)ncnn23)C1  human FGFR4 (Homo sapiens, UniProt P22455)                    <             5.00
1  C=CC(=O)N1CC[C@H](c2cc(-c3sc4c(OC)cc(Cl)cc4c3C)c3c(N)ncnn23)C1  human FGFR4 (Homo sapiens, UniProt P22455)                    =             8.48
2  CCC(=O)N1CC[C@H](c2cc(-c3cc4c(F)c(OC)cc(OC)c4s3)c3c(N)ncnn23)C1  human FGFR4 (Homo sapiens, UniProt P22455)                    =             6.86
3  CCC(=O)N1CC[C@H](c2cc(-c3nc4cc(OC)cc(OC)c4s3)c3c(N)ncnn23)C1  human FGFR4 (Homo sapiens, UniProt P22455)                    <             5.00
4  COc1cc(C)cc2cc(-c3cc(C4CCN(C(=O)CC#N)C4)n4ncnc(N)c34)sc12 (single isomer, unassigned)  human FGFR4 (Homo sapiens, UniProt P22455)                    =             8.28
5  C=CC(=O)N1CC[C@H](c2cc(-c3cc4cccc(OC)c4s3)c3c(N)ncnn23)C1  human FGFR4 (Homo sapiens, UniProt P22455)                    =             9.05
6  C=CC(=O)N1CC[C@H](c2cc(-c3cc4c(F)c(OC)cc(OC)c4s3)c3c(N)ncnn23)C1  human FGFR4 (Homo sapiens, UniProt P22455)                    =             9.70
7  C=CC(=O)N1CC[C@@H](c2cc(-c3cc4cc(Cl)cc(OC)c4s3)c3c(N)ncnn23)C1  human FGFR4 (Homo sapiens, UniProt P22455)                    =             8.39

* * *

Experiment: Pharmacokinetics in mice in vivo
Conditions: female, mouse, plasma; Balb/c mice, oral administration (10 npk); read-out: Area under the curve, AUC
measured.parameter: AUC (µM·h)

In [3]: df
Out[3]:
                                   compound  reported_result
0  COc1cc(C)cc2cc(-c3cc(C4CCN(C(=O)CC#N)C4)n4ncnc(N)c34)sc12 (single isomer, unassigned) [Example 15]              4.8
1  C=CC(=O)N1CC[C@H](n2nc(C#Cc3cc(OC)cc(OC)c3)c3c(N)ncnc32)C1 [Reference Example 1, reference compound]             11.9
